TEST_SYSTEM: AMPK
MEASUREMENT_DESCRIPTION: AMPK activation, enzyme-linked immunosorbent assay
Listing of entries alongside the reported EC50.
ENDPOINT: EC50

INSERT INTO measurements (molecule, observed_value) VALUES
  ('COc1ccc(C(=O)C2CCN(C(=O)c3ccc(C(=O)N[C@@H]4CCN(Cc5ccc(C#N)c(F)c5)C[C@H]4F)cn3)CC2)cc1 (relative stereo)', '< 500 nM'),
  ('COc1ccc(C(=O)C2CCN(C(=O)c3ccc(C(=O)N[C@@H]4CCN(Cc5ccc(C#N)cc5)C[C@@H]4F)cn3)CC2)cc1 (relative stereo)', '< 500 nM'),
  ('N#Cc1ccc(O[C@H]2CC[C@@H](NC(=O)c3ccc(C(=O)N4CCC(C(=O)c5ccc(N6CCCC6)cc5)CC4)nc3)CC2)cc1', '< 500 nM'),
  ('CS(=O)(=O)c1ccc(N2CCC(NC(=O)c3ccc(C(=O)N4CCN(Cc5ccc(F)cc5)CC4)nc3)CC2)cc1', '1000 to 5000 nM'),
  ('N#Cc1ccc(CN2CCC(NC(=O)c3ccc(C(=O)N4CCC(Cc5ccccc5)CC4)cn3)CC2)cc1', '< 500 nM'),
  ('N#Cc1ccc(OC2CCN(C(=O)c3ccc(C(=O)N[C@H]4CC[C@@H](Oc5ccc(F)cc5)CC4)nc3)CC2)cc1', '< 500 nM');
